Each entry below carries its recorded inhibition.
Molecular target: Death-associated protein kinase 3 (Homo sapiens, UniProt O43293)
Test: Inhibition of DAPK3 at 10 uM
Sequence (O43293 whole entry, looked up): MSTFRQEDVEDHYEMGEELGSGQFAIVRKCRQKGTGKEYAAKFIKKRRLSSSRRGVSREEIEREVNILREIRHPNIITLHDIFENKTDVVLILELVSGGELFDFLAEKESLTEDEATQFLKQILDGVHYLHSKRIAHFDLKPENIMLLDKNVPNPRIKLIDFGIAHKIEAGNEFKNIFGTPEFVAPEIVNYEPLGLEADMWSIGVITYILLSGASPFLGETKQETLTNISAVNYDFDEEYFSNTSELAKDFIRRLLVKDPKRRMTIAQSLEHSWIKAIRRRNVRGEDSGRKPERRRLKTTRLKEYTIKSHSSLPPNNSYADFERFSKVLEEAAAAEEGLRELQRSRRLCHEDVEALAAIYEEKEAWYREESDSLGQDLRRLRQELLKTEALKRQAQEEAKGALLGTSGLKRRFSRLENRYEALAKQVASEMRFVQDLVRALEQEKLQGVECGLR
Form entry: value (%) — number only.

Cc1cccc2c(C(=O)O)cc(-c3ccncc3)nc12 | 72

# context switch: different compound, same inhibition
Prompt: What measured inhibition goes with `O=C1OC(c2ccccc2)=N/C1=C\c1cccnc1` ?
Response: 84

====

Target: Mitogen-activated protein kinase 1 (Homo sapiens, UniProt P28482)
Sequence (P28482 whole entry): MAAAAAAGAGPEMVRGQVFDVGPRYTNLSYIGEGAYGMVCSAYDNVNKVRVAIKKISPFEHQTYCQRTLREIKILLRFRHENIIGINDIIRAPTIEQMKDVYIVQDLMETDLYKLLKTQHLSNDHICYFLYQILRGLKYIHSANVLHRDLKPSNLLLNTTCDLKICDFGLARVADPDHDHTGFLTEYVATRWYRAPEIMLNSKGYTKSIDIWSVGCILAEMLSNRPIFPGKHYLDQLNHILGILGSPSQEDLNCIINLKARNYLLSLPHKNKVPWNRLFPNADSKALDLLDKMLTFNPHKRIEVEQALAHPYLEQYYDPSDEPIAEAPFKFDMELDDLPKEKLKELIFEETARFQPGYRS
Test: Inhibition of Erk2
pIC50: −log10 of the molar value.
readout type: pIC50

Prompt: Quick check: pIC50 of `O=C1OC(/C=C/c2ccccc2)=NC/1=C\c1cccnc1` ?
Response: < 5.00

====

Target: Vascular endothelial growth factor receptor 2 (Homo sapiens)
Sequence (P35968 whole entry): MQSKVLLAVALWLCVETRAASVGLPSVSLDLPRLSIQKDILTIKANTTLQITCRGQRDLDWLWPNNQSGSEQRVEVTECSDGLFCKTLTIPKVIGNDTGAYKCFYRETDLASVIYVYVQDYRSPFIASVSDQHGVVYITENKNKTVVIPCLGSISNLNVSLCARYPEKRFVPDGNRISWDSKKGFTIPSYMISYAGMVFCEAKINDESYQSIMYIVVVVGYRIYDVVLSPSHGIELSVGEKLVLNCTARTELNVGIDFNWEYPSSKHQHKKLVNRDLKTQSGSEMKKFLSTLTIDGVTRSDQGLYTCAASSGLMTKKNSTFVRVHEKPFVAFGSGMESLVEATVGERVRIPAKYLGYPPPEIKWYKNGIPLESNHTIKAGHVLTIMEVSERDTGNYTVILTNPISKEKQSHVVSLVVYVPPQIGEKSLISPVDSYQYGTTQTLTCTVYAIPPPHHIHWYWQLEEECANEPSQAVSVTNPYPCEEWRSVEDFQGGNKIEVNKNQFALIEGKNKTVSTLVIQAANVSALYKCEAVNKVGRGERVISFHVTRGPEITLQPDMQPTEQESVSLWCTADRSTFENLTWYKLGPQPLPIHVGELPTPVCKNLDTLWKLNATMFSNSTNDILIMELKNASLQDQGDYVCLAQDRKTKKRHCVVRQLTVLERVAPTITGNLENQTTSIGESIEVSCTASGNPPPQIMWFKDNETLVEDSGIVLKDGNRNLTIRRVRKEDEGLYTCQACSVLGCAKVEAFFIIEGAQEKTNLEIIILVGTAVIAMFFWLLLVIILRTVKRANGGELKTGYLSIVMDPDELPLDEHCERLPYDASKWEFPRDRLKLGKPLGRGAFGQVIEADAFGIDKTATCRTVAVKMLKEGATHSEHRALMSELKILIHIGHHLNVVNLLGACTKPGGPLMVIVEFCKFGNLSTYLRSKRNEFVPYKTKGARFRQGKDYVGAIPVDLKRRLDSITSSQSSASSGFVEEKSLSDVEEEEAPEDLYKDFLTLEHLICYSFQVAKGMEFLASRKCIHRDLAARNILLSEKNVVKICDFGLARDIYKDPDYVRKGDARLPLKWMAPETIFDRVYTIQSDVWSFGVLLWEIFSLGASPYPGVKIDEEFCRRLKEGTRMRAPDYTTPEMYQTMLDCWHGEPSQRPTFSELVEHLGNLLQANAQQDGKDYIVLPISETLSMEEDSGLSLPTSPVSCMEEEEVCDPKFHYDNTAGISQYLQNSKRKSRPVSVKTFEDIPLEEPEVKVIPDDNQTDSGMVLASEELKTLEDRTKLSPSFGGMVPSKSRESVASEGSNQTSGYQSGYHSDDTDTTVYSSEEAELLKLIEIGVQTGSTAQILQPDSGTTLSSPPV
readout type: IC50

Prompt: What IC50 value was documented for this compound, `O=C1OC(/C=C/c2ccccc2)=NC/1=C\c1cccnc1` ?
Response: > 10 µM

====

Target: Casein kinase I isoform delta (Homo sapiens, UniProt P48730)
Sequence (P48730 whole entry, canonical isoform): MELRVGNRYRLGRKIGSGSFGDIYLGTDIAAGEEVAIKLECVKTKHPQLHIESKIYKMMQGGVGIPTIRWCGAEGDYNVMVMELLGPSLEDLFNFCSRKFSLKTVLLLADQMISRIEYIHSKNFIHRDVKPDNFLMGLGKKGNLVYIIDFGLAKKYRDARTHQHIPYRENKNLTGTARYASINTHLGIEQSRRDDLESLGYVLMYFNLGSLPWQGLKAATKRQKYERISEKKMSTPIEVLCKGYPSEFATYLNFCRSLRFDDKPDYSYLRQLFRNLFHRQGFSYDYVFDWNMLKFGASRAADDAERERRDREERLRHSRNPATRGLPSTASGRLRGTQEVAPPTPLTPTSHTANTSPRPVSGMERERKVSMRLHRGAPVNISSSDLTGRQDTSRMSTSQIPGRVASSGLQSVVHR
Assay: Inhibition of CK1delta
pIC50: −log10 of the molar value.
readout type: pIC50

Prompt: Item under review: `O=C1OC(/C=C/c2ccccc2)=NC/1=C\c1cccnc1` . Reported pIC50?
Response: < 5.00

====

Target: Dual specificity tyrosine-phosphorylation-regulated kinase 1A (Homo sapiens)
pIC50: −log10 of the molar value.
readout type: pIC50

Prompt: Value lookup for pIC50; key = `O=C1OC(/C=C/c2ccccc2)=NC/1=C\c1cccnc1`
Response: < 5.00

====

Molecular target: Death-associated protein kinase 3 (Homo sapiens)
pIC50: −log10 of the molar value.
readout type: pIC50

Prompt: Requested read-out: pIC50. Entry: `O=C1OC(/C=C/c2ccccc2)=NC/1=C\c1cccnc1`
Response: > 6.00

====

Target: Fibroblast growth factor receptor 1 (Homo sapiens)
Sequence (P11362 whole entry): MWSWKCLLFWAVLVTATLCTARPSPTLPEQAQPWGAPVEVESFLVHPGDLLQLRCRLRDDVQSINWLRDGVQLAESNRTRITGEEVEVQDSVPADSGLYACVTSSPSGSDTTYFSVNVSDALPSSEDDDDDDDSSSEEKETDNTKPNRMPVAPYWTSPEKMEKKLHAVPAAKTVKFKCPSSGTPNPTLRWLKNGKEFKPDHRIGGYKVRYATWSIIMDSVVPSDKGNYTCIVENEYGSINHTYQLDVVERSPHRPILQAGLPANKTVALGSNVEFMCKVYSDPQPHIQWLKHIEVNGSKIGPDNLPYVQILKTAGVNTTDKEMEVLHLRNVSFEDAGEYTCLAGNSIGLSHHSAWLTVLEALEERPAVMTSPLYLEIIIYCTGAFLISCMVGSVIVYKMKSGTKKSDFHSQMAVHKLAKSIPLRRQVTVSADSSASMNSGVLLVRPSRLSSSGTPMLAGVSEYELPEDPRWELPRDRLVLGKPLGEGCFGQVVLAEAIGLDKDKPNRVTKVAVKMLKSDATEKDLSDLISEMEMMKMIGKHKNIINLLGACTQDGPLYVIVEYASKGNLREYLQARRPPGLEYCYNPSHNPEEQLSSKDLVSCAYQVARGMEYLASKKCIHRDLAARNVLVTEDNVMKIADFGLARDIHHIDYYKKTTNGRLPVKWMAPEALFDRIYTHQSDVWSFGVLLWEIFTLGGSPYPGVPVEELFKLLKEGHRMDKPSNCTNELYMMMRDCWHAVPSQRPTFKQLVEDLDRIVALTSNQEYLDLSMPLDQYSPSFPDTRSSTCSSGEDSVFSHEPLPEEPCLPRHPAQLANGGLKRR
readout type: IC50

Prompt: Could you tell me which IC50 is on file for `O=C1OC(/C=C/c2ccccc2)=NC/1=C\c1cccnc1` ?
Response: > 10 µM

====

Target: Death-associated protein kinase 3 (Homo sapiens)
Test: Inhibition of DAPK3 at 1 uM
readout type: inhibition (%)
Could you give me the number in %? Just the number is fine.

# example entries with known answers
O=C1OC(/C=C/c2ccccc2)=NC/1=C\c1cccnc1 | 3
O=C1OC(C23CC4CC(CC(C4)C2)C3)=N/C1=C\c1cccnc1 | 3
O=C1OC(c2cccc(Cl)c2[N+](=O)[O-])=N/C1=C\c1cccnc1 | 3
O=C1OC(c2ccccc2)=N/C1=C\c1cccnc1 | 71
Cc1c(O)ccc2c(CN3CCN(C)CC3)cc(=O)oc12 | 12
Cc1ccccc1C1=N/C(=C\c2cccnc2)C(=O)O1 | 3
Cc1cccc2c(C(=O)O)cc(-c3ccncc3)nc12 | 2

Lab note: next compound to report on.
Prompt: Looking for the measured inhibition of `Cc1ccc2nc(-c3ccncc3)cc(C(=O)O)c2c1` , can you help?
Response: 3

====

Molecular target: UniProt O43293
Assay: Inhibition of DAPK3 at 10 uM
# inhibition per entry
Express it in %; write the number only.

Cc1ccc2nc(-c3ccncc3)cc(C(=O)O)c2c1 | 58

Prompt: Query (compound): `Cc1c(O)ccc2c(CN3CCN(C)CC3)cc(=O)oc12` ; field requested: inhibition
Response: 54

Prompt: Same question, `O=C1OC(c2cccc(Cl)c2[N+](=O)[O-])=N/C1=C\c1cccnc1` this time
Response: 58
